Entry source: ChEMBL document CHEMBL2424530

Here's what we have: IC50 numbers for Cyclin-dependent kinase 6 (Homo sapiens, UniProt Q00534).

{"columns": ["smiles_string", "IC50, nM"],
 "data": [
  ["COc1ccc(NC(=S)NC(=O)c2cn(-c3ccccc3)nc2-c2ccc(F)cc2)cc1", 33],
  ["COc1ccc(NC(=S)NC(=O)c2cn(-c3ccccc3)nc2-c2ccccc2)cc1", 50]
]}

* * *

# System: MCF7
# experiment_summary: Cytotoxicity against human MCF7 cells assessed as growth inhibition after 24 to 48 hrs by CCK8 assay
# Type: functional, cell-based
pIC50: −log10 of the molar value.

{"columns": ["smiles_string", "study_system", "pIC50"],
 "data": [
  ["COc1ccc(-c2nn(-c3ccccc3)cc2C(=O)NC(=S)Nc2ccc(F)cc2)cc1", "MCF7", 5.30],
  ["COc1ccc(-c2nn(-c3ccccc3)cc2C(=O)NC(=S)Nc2ccc(C)cc2)cc1", "MCF7", 5.33],
  ["COc1ccc(NC(=S)NC(=O)c2cn(-c3ccccc3)nc2-c2ccc(F)cc2)cc1", "MCF7", 5.31],
  ["Cc1ccc(-c2nn(-c3ccccc3)cc2C(=O)NC(=S)Nc2ccc(Cl)cc2)cc1", "MCF7", 5.21],
  ["COc1ccc(NC(=S)NC(=O)c2cn(-c3ccccc3)nc2-c2ccc(C)cc2)cc1", "MCF7", 5.29],
  ["O=C(NC(=S)Nc1ccc(Cl)cc1)c1cn(-c2ccccc2)nc1-c1ccc(Cl)cc1", "MCF7", 5.27],
  ["Cc1ccc(NC(=S)NC(=O)c2cn(-c3ccccc3)nc2-c2ccc(Cl)cc2)cc1", "MCF7", 5.22],
  ["Cc1ccc(NC(=S)NC(=O)c2cn(-c3ccccc3)nc2-c2ccc(C)cc2)cc1", "MCF7", 5.25],
  ["Cn1cnc2c(NCc3ccccc3)nc(NCCO)nc21", "MCF7", 3.85],
  ["O=C(NC(=S)Nc1ccc(Cl)cc1)c1cn(-c2ccccc2)nc1-c1ccccc1", "MCF7", 5.21],
  ["O=C(NC(=S)Nc1ccc(F)cc1)c1cn(-c2ccccc2)nc1-c1ccccc1", "MCF7", 5.17],
  ["Cc1ccc(NC(=S)NC(=O)c2cn(-c3ccccc3)nc2-c2ccc(F)cc2)cc1", "MCF7", 5.26],
  ["COc1ccc(-c2nn(-c3ccccc3)cc2C(=O)NC(=S)Nc2ccc(Cl)cc2)cc1", "MCF7", 5.32],
  ["O=C(NC(=S)Nc1ccc(F)cc1)c1cn(-c2ccccc2)nc1-c1ccc(F)cc1", "MCF7", 5.25],
  ["O=C(NC(=S)Nc1ccc(F)cc1)c1cn(-c2ccccc2)nc1-c1ccc(Cl)cc1", "MCF7", 5.22],
  ["COc1ccc(NC(=S)NC(=O)c2cn(-c3ccccc3)nc2-c2ccc(OC)cc2)cc1", "MCF7", 5.38],
  ["COc1ccc(NC(=S)NC(=O)c2cn(-c3ccccc3)nc2-c2ccc(Cl)cc2)cc1", "MCF7", 5.28],
  ["O=C(NC(=S)Nc1ccc(Cl)cc1)c1cn(-c2ccccc2)nc1-c1ccc(F)cc1", "MCF7", 5.26],
  ["COc1ccc(NC(=S)NC(=O)c2cn(-c3ccccc3)nc2-c2ccccc2)cc1", "MCF7", 5.26],
  ["Cc1ccc(-c2nn(-c3ccccc3)cc2C(=O)NC(=S)Nc2ccc(F)cc2)cc1", "MCF7", 5.19],
  ["Cc1ccc(NC(=S)NC(=O)c2cn(-c3ccccc3)nc2-c2ccccc2)cc1", "MCF7", 5.23]
]}

* * *

Target or system Cyclin-dependent kinase 2 (Homo sapiens, UniProt P24941): recorded pIC50 listed per item.
pIC50: −log10 of the molar value.

{"columns": ["smiles_string", "pIC50"],
 "data": [
  ["Cc1ccc(-c2nn(-c3ccccc3)cc2C(=O)NC(=S)Nc2ccc(Cl)cc2)cc1", 7.20],
  ["COc1ccc(-c2nn(-c3ccccc3)cc2C(=O)NC(=S)Nc2ccc(C)cc2)cc1", 7.54],
  ["Cc1ccc(NC(=S)NC(=O)c2cn(-c3ccccc3)nc2-c2ccccc2)cc1", 7.16],
  ["COc1ccc(-c2nn(-c3ccccc3)cc2C(=O)NC(=S)Nc2ccc(Cl)cc2)cc1", 7.52],
  ["Cc1ccc(NC(=S)NC(=O)c2cn(-c3ccccc3)nc2-c2ccc(Cl)cc2)cc1", 7.38],
  ["O=C(NC(=S)Nc1ccc(F)cc1)c1cn(-c2ccccc2)nc1-c1ccc(Cl)cc1", 7.23],
  ["COc1ccc(NC(=S)NC(=O)c2cn(-c3ccccc3)nc2-c2ccc(F)cc2)cc1", 7.44],
  ["COc1ccc(NC(=S)NC(=O)c2cn(-c3ccccc3)nc2-c2ccc(C)cc2)cc1", 7.33],
  ["COc1ccc(NC(=S)NC(=O)c2cn(-c3ccccc3)nc2-c2ccc(Cl)cc2)cc1", 7.43],
  ["O=C(NC(=S)Nc1ccc(Cl)cc1)c1cn(-c2ccccc2)nc1-c1ccc(Cl)cc1", 7.24],
  ["O=C(NC(=S)Nc1ccc(F)cc1)c1cn(-c2ccccc2)nc1-c1ccccc1", 7.12]
]}

* * *

# study_system: Cyclin-dependent kinase 4 (Homo sapiens, UniProt P11802)
# Sequence (P11802 whole entry): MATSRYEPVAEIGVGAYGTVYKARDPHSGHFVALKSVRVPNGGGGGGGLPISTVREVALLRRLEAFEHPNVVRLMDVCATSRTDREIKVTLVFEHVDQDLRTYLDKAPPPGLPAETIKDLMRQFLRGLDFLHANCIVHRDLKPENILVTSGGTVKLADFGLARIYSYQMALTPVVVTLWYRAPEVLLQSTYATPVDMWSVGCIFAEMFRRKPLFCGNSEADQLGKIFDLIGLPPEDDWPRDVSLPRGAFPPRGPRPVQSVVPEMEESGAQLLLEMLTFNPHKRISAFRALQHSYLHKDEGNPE
pIC50: −log10 of the molar value.
As shown below, each of these compounds has a reported pIC50 value.

{"columns": ["smiles_string", "pIC50"],
 "data": [
  ["COc1ccc(NC(=S)NC(=O)c2cn(-c3ccccc3)nc2-c2ccccc2)cc1", 7.38],
  ["COc1ccc(NC(=S)NC(=O)c2cn(-c3ccccc3)nc2-c2ccc(F)cc2)cc1", 7.41],
  ["COc1ccc(NC(=S)NC(=O)c2cn(-c3ccccc3)nc2-c2ccc(Cl)cc2)cc1", 7.40],
  ["COc1ccc(NC(=S)NC(=O)c2cn(-c3ccccc3)nc2-c2ccc(OC)cc2)cc1", 7.46]
]}

* * *

# study_system: Cyclin-dependent kinase 5 (Homo sapiens, UniProt Q00535)
# Sequence (Q00535 whole entry): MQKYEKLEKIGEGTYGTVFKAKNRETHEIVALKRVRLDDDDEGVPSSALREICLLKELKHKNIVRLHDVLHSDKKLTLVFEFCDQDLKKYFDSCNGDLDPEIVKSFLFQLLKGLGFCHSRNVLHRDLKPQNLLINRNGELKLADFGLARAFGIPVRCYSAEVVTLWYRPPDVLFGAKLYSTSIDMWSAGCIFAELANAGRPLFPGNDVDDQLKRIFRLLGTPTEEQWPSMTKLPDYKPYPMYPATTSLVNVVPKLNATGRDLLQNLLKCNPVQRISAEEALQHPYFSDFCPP
metric: IC50 (nM)

{"columns": ["smiles_string", "result_unit", "observed_measurement"],
 "data": [
  ["COc1ccc(NC(=S)NC(=O)c2cn(-c3ccccc3)nc2-c2ccc(C)cc2)cc1", "nM", 1420],
  ["COc1ccc(NC(=S)NC(=O)c2cn(-c3ccccc3)nc2-c2ccc(Cl)cc2)cc1", "nM", 1360]
]}
